# System: dopamine D-1 receptor
# EXPERIMENTAL_SETUP: dopamine = 100; goldfish retina or rat striatum
Counter-ions that a name gives are not always drawn.
Please assign a class to every record based on measured Intrinsic Activity (adenylate cyclase assay), with ranges low band (below 80), middle band (80 to below 90), high band (90 or more)

INSERT INTO assay_data (compound, category_label) VALUES
  ('CNC[C@H]1O[C@@H](CC2CCCCC2)Cc2c1ccc(O)c2O (relative stereo)', 'high band'),
  ('NCC1=CC(C23CC4CC(CC(C4)C2)C3)Cc2c1ccc(O)c2O (centres unmarked)', 'middle band'),
  ('NC[C@H]1O[C@@H](c2cccc(C(F)(F)F)c2)Cc2c1ccc(O)c2O (relative stereo)', 'high band'),
  ('Oc1ccc2c(c1O)C[C@H](c1ccccc1)O[C@@H]2[C@H]1CCCN1', 'low band'),
  ('CCCNCC1=CC(c2ccccc2)Cc2c1ccc(O)c2O (centres unmarked)', 'low band'),
  ('Cl.NCc1cc(-c2ccccc2)cc2c(O)c(O)ccc12', 'low band'),
  ('CC(C)(C)[C@H]1Cc2c(ccc(O)c2O)[C@@H](CN)O1 (relative stereo) [Example 48, Hydrochloride]', 'high band'),
  ('C=CCCCC[C@@H]1Cc2c(ccc(O)c2O)[C@H](CN)O1 (relative stereo)', 'middle band'),
  ('NC[C@@H]1S[C@H](c2ccccc2)Cc2c1ccc(O)c2O (relative stereo) [Example 186, Hydrochloride]', 'high band'),
  ('Br.NCC1=CC(C2CCCCC2)Cc2c1ccc(O)c2O (centres unmarked)', 'low band'),
  ('Oc1ccc2c(c1O)C[C@H](C1CCCCC1)O[C@@H]2CN1CCCC1 (relative stereo)', 'low band'),
  ('Oc1ccc2c(c1O)C[C@@H](c1ccccc1)C1=C2CNCC1', 'high band'),
  ('NC[C@@H]1O[C@H](CCc2ccccc2)Cc2c1ccc(O)c2O (relative stereo)', 'low band');

* * *

# SYSTEM: dopamine D-2 receptor (Rattus norvegicus, UniProt P61169)
# Sequence (P61169 whole entry): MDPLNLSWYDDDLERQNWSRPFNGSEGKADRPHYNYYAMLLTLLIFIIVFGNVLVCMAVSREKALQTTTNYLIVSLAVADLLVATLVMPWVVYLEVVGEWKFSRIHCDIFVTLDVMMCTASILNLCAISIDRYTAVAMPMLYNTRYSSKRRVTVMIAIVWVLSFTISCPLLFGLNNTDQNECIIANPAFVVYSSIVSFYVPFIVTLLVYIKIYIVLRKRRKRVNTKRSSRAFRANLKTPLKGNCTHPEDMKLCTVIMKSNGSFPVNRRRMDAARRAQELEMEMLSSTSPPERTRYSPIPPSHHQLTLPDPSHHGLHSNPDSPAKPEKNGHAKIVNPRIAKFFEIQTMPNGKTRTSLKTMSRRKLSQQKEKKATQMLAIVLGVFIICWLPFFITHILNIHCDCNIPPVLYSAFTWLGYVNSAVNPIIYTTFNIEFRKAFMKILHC
# PROTOCOL_DESCRIPTION: biochemical
# Format: binding
# EXPERIMENTAL_SETUP: rat caudate, [125I]-p-aminophenylethyl spiroperidol; read-out: D-2 Ki
Structures can show the parent of a compound that is named as a salt.
READOUT_TYPE: Ki (nM)

INSERT INTO results (compound, endpoint_value) VALUES
  ('CNC[C@H]1O[C@@H](CCO)Cc2c1ccc(O)c2O (relative stereo)', 3500),
  ('CN1CCC2=C(C1)c1ccc(O)c(O)c1CC21CCCCC1', 700),
  ('CNC[C@@H]1S[C@H](c2ccccc2)Cc2c1ccc(O)c2O (relative stereo) [Example 187, Hydrochloride]', 6400),
  ('CN1CCC2=C(C1)c1ccc(O)c(O)c1CC2CC1CCCC1 (centres unmarked)', 180),
  ('NC[C@H]1O[C@@H](COc2ccccc2-c2ccccc2)Cc2c1ccc(O)c2O (relative stereo)', 1300),
  ('CCCNCC1=CC(c2ccccc2)Cc2c1ccc(O)c2O (centres unmarked)', 2500),
  ('C=CCNC[C@H]1O[C@@H](C23CC4CC(CC(C4)C2)C3)Cc2c1ccc(O)c2O (relative stereo)', 1000),
  ('Oc1ccc2c(c1O)CC1(CCCCC1)C1=C2CNCC1', 1500);

* * *

# SYSTEM: dopamine D-2 receptor (Rattus norvegicus, UniProt P61169)
# PROTOCOL_DESCRIPTION: biochemical
# Assay type: binding
# EXPERIMENTAL_SETUP: D-2 Ki, rat caudate, [125I]-p-aminophenylethyl spiroperidol
READOUT_TYPE: Ki (µM)

INSERT INTO results (compound, readout_type, endpoint_value) VALUES
  ('NCC1=CC(c2ccccc2)Cc2c1ccc(OC(=O)NCc1ccccc1)c2OC(=O)NCc1ccccc1 (stereo not shown)', 'Ki', 32);

* * *

# SYSTEM: dopamine D-1 receptor (Rattus norvegicus)
# PROTOCOL_DESCRIPTION: biochemical
# EXPERIMENTAL_SETUP: D-1 Ki, rat caudate, [125I]SCH-23982
Structures can show the parent of a compound that is named as a salt.
READOUT_TYPE: log10(Ki) (log10 of the value in nM)

INSERT INTO assay_data (molecule, endpoint_value) VALUES
  ('NC[C@H]1O[C@@H](CNC(=O)c2ccc(Br)cc2)Cc2c1ccc(O)c2O (relative stereo)', 2.49),
  ('CC(C)(C)C1Cc2c(ccc(O)c2O)C2=C1CCNC2 (centres unmarked)', 3.00),
  ('CN1CCC2=C(C1)c1ccc(O)c(O)c1CC21CCCCCCCC1', 2.76),
  ('CNC[C@@H]1O[C@H](C(C)(C)C)Cc2c1ccc(O)c2O.Cl [Example 112, hydrochloride]', 1.58),
  ('CCN1CCC2=C(C1)c1ccc(O)c(O)c1CC21CCCCCC1', 2.72),
  ('NC[C@@H]1O[C@H](C2CCCCC2)Cc2c1cc(Br)c(O)c2O (relative stereo)', 2.32),
  ('NC[C@@H]1O[C@H](C23CC4CC(CC(C4)C2)C3)Cc2c(O)c(O)cc(Br)c21 (relative stereo) [Example 107, Hydrobromide]', 3.40),
  ('NC[C@H]1C[C@@H](c2cccc(O)c2)Cc2c1ccc(O)c2O (relative stereo)', 1.79);

* * *

# SYSTEM: dopamine D-1 receptor
# EXPERIMENTAL_SETUP: read-out: EC50 (agonist activity in adenylate cyclase assay); tissue from goldfish retina or rat striatum
READOUT_TYPE: log10 of EC50 (log10 of the value in nM)

INSERT INTO measurements (molecule, system, endpoint_value) VALUES
  ('CCNCC1=CC(c2ccccc2)Cc2c1ccc(O)c2O (centres unmarked)', 'dopamine D-1 receptor', 3.49),
  ('CCCCCCCC[C@@H]1Cc2c(ccc(O)c2O)[C@H](CN)O1 (relative stereo)', 'dopamine D-1 receptor', 2.59),
  ('CN(C)CC1OC(CC(C)(C)C)Cc2c1ccc(O)c2O (centres unmarked)', 'dopamine D-1 receptor', 2.60),
  ('CNC[C@H]1O[C@@H](c2ccc(F)cc2)Cc2c1ccc(O)c2O (relative stereo)', 'dopamine D-1 receptor', 0.70),
  ('CNC[C@@H]1O[C@H](C2(C)CCCCC2)Cc2c1ccc(O)c2O (relative stereo)', 'dopamine D-1 receptor', 1.60),
  ('NC[C@@H]1O[C@H](Cc2ccccc2)Cc2c1ccc(O)c2O (relative stereo)', 'dopamine D-1 receptor', 1.57),
  ('NCCC(=O)Oc1ccc2c(c1OC(=O)CCN)CC(c1ccccc1)C=C2CN (centres unmarked)', 'dopamine D-1 receptor', 2.30),
  ('CC(C)C(=O)Oc1ccc2c(c1OC(=O)C(C)C)CC(c1ccccc1)C=C2CN (centres unmarked)', 'dopamine D-1 receptor', 3.18);

* * *

# SYSTEM: dopamine D-1 receptor
# EXPERIMENTAL_SETUP: read-out: EC50 (agonist activity in adenylate cyclase assay); tissue from goldfish retina or rat striatum
pEC50: −log10 of the molar value. Where a name gives a salt, the structure may show the parent alone.
READOUT_TYPE: pEC50

INSERT INTO measurements (compound, readout_type, endpoint_value) VALUES
  ('Oc1ccc2c(c1O)CC1(CCCCCC1)C1=C2CNCC1 [Example 206]', 'pEC50', 7.17),
  ('NC[C@@H]1S[C@H](c2ccccc2)Cc2c1ccc(O)c2O (relative stereo) [Example 186, Hydrochloride]', 'pEC50', 5.89),
  ('NC[C@@H]1O[C@H](C2CCCCC2)Cc2c1ccc1c2OC2(CCCCC2)O1 (relative stereo) [Example 63]', 'pEC50', 6.15),
  ('NC[C@@H]1O[C@H](c2ccc(I)cc2)Cc2c1ccc(O)c2O (relative stereo) [Example 80]', 'pEC50', 8.10);

* * *

# SYSTEM: dopamine D-1 receptor (Rattus norvegicus, UniProt P18901)
# Sequence (P18901 whole entry): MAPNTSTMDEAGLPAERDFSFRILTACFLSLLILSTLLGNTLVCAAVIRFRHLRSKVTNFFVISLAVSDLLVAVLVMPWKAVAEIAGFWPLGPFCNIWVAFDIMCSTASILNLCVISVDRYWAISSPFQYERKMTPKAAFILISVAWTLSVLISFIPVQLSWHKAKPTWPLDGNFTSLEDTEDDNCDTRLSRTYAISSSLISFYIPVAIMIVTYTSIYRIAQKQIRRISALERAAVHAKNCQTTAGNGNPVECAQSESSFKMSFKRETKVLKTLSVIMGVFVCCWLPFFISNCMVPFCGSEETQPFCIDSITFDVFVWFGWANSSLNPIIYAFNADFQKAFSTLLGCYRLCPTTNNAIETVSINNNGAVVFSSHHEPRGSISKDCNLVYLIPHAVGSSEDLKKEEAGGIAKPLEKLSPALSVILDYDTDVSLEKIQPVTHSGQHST
# PROTOCOL_DESCRIPTION: biochemical
# EXPERIMENTAL_SETUP: D-1 Ki, rat caudate, [125I]SCH-23982
pKi: −log10 of the molar value.
// values below are reported pKi
READOUT_TYPE: pKi

INSERT INTO assay_data (compound, system, qualifier_operator, endpoint_value) VALUES
  ('NCC1=CC(c2ccccc2)Cc2c1ccc(OC(=O)NCc1ccccc1)c2OC(=O)NCc1ccccc1 (centres unmarked)', 'dopamine D-1 receptor (Rattus norvegicus, UniProt P18901)', '<', 5.00),
  ('CNCC1OC2(CCOCC2)Cc2c1ccc(O)c2O (centres unmarked)', 'dopamine D-1 receptor (Rattus norvegicus, UniProt P18901)', '=', 5.92),
  ('NCCC(=O)Oc1ccc2c(c1OC(=O)CCN)CC(c1ccccc1)C=C2CN (centres unmarked)', 'dopamine D-1 receptor (Rattus norvegicus, UniProt P18901)', '<', 5.00),
  ('CNC[C@@H]1O[C@H](C23CC4CC(CC(C4)C2)C3)Cc2c1ccc(O)c2O', 'dopamine D-1 receptor (Rattus norvegicus, UniProt P18901)', '=', 7.46),
  ('CNC[C@@H]1O[C@H](C2(c3ccccc3)CCCCC2)Cc2c1ccc(O)c2O (relative stereo)', 'dopamine D-1 receptor (Rattus norvegicus, UniProt P18901)', '=', 7.05);
